- Tested on: Candida albicans
- Test name: Antifungal activity against Candida albicans ATCC 90028 by microscopy
- Assay type: functional
MIC reference

[
  {
    "Compound structure": "COc1ccccc1N(CCCCCC1CCCCC1)c1ccc[n+](C)c1.[I-]",
    "Qualifier sign": "=",
    "MIC [µg/mL]": 10
  },
  {
    "Compound structure": "C[n+]1cccc(N(CCCCCC2CCCCC2)c2ccccc2Cl)c1.[I-]",
    "Qualifier sign": "=",
    "MIC [µg/mL]": 5
  },
  {
    "Compound structure": "C[n+]1cccc(N(CCCCCC2CCCCC2)c2ccc(C#N)cc2)c1.[I-]",
    "Qualifier sign": "=",
    "MIC [µg/mL]": 20
  },
  {
    "Compound structure": "C[n+]1c2ccccc2cc2[nH]c3ccc(Cl)cc3c21.[I-]",
    "Qualifier sign": ">",
    "MIC [µg/mL]": 20
  },
  {
    "Compound structure": "CSc1ccc(N(CCCCCC2CCCCC2)c2ccc[n+](C)c2)cc1.[I-]",
    "Qualifier sign": "=",
    "MIC [µg/mL]": 5
  },
  {
    "Compound structure": "C[n+]1c2cc(Cl)ccc2c(Cl)c2[nH]c3ccccc3c21.[I-]",
    "Qualifier sign": "=",
    "MIC [µg/mL]": 10
  },
  {
    "Compound structure": "C[n+]1c2cc(Cl)ccc2cc2[nH]c3ccccc3c21.O=S(=O)([O-])C(F)(F)F",
    "Qualifier sign": ">",
    "MIC [µg/mL]": 20
  },
  {
    "Compound structure": "Cc1ccc(N(CCCCCC2CCCCC2)c2ccc[n+](C)c2)cc1.[I-]",
    "Qualifier sign": "=",
    "MIC [µg/mL]": 2.5
  },
  {
    "Compound structure": "COc1ccc(N(CCCCCC2CCCCC2)c2ccc[n+](C)c2)cc1.[I-]",
    "Qualifier sign": "=",
    "MIC [µg/mL]": 10
  },
  {
    "Compound structure": "C[n+]1c2ccc(Cl)cc2cc2c1c1ccccc1n2CCCCCC1CCCCC1.[I-]",
    "Qualifier sign": "=",
    "MIC [µg/mL]": 1.3
  },
  {
    "Compound structure": "C[n+]1cccc(N(CCCCCC2CCCCC2)c2ccc(Cl)cc2)c1.[I-]",
    "Qualifier sign": "=",
    "MIC [µg/mL]": 3.1
  },
  {
    "Compound structure": "C[n+]1c2ccccc2cc2[nH]c3ccc(Br)cc3c21.[I-]",
    "Qualifier sign": ">",
    "MIC [µg/mL]": 20
  },
  {
    "Compound structure": "C[n+]1c2ccc(Cl)cc2cc2[nH]c3ccccc3c21.[I-]",
    "Qualifier sign": "=",
    "MIC [µg/mL]": 5.5
  },
  {
    "Compound structure": "C[n+]1cccc(N(CCCCCC2CCCCC2)c2ccc(C(F)(F)F)cc2)c1.[I-]",
    "Qualifier sign": "=",
    "MIC [µg/mL]": 2.5
  },
  {
    "Compound structure": "COc1cccc(N(CCCCCC2CCCCC2)c2ccc[n+](C)c2)c1.[I-]",
    "Qualifier sign": "=",
    "MIC [µg/mL]": 20
  },
  {
    "Compound structure": "Cc1cccc(N(CCCCCC2CCCCC2)c2ccc[n+](C)c2)c1.[I-]",
    "Qualifier sign": "=",
    "MIC [µg/mL]": 5
  },
  {
    "Compound structure": "C[n+]1cc(N(CCCCCC2CCCCC2)c2ccc(Cl)cc2)cc2ccccc21.[I-]",
    "Qualifier sign": "=",
    "MIC [µg/mL]": 1.3
  },
  {
    "Compound structure": "C[n+]1cc(N(CCCCCC2CCCCC2)c2cccc(Cl)c2)cc2ccccc21.[I-]",
    "Qualifier sign": "=",
    "MIC [µg/mL]": 2.5
  },
  {
    "Compound structure": "Clc1cccc(Nc2cc3ccccc3[n+](CCCCCC3CCCCC3)c2)c1.[I-]",
    "Qualifier sign": "=",
    "MIC [µg/mL]": 6.3
  },
  {
    "Compound structure": "C[n+]1cccc(N(CCCCCC2CCCCC2)c2cccc(C(F)(F)F)c2)c1.[I-]",
    "Qualifier sign": "=",
    "MIC [µg/mL]": 5
  },
  {
    "Compound structure": "C[n+]1c2cccc(Cl)c2cc2[nH]c3ccccc3c21.O=S(=O)([O-])C(F)(F)F",
    "Qualifier sign": ">",
    "MIC [µg/mL]": 20
  }
]

----------
- Test system: Candida albicans
- Test name: Antifungal activity against Candida albicans ATCC 90028 by microscopy
- Type: functional
MIC reference

[
  {
    "Compound structure": "C[n+]1cc(N(CCCCCC2CCCCC2)c2ccccc2Cl)cc2ccccc21.[I-]",
    "Qualifier sign": "=",
    "MIC / µg/mL": 1.3
  },
  {
    "Compound structure": "Clc1ccc(Nc2cc3ccccc3[n+](CCCCCC3CCCCC3)c2)cc1.[I-]",
    "Qualifier sign": ">",
    "MIC / µg/mL": 20
  },
  {
    "Compound structure": "C[n+]1cccc(N(CCCCCC2CCCCC2)c2ccccc2C(F)(F)F)c1.[I-]",
    "Qualifier sign": "=",
    "MIC / µg/mL": 5
  },
  {
    "Compound structure": "C[n+]1cc(N(CCCCCC2CCCCC2)c2ccccc2)cc2ccccc21.[I-]",
    "Qualifier sign": "=",
    "MIC / µg/mL": 2.5
  },
  {
    "Compound structure": "C[n+]1cccc(N(CCCCCC2CCCCC2)c2ccccc2)c1.[I-]",
    "Qualifier sign": "=",
    "MIC / µg/mL": 20
  }
]

----------
- System: Cryptococcus neoformans
- Test name: Antifungal activity against Cryptococcus neoformans ATCC 90113 assessed as inhibition of fungal growth by alamar blue assay
- Assay type: functional, organism-based
Rule: measured IC50 below 1 µg/mL gets true (1); anything equal to or greater than 1 µg/mL gets false (0).

[
  {
    "Compound structure": "C[n+]1cccc(N(CCCCCC2CCCCC2)c2ccc(C(F)(F)F)cc2)c1.[I-]",
    "Cat": "false (0)"
  },
  {
    "Compound structure": "C[n+]1cccc(N(CCCCCC2CCCCC2)c2cccc(Cl)c2)c1.[I-]",
    "Cat": "true (1)"
  },
  {
    "Compound structure": "CSc1ccc(N(CCCCCC2CCCCC2)c2ccc[n+](C)c2)cc1.[I-]",
    "Cat": "false (0)"
  },
  {
    "Compound structure": "C[n+]1c2ccc(Cl)cc2cc2c1c1ccccc1n2CCCCCC1CCCCC1.[I-]",
    "Cat": "true (1)"
  },
  {
    "Compound structure": "C[n+]1c2ccccc2cc2[nH]c3ccc(Br)cc3c21.[I-]",
    "Cat": "false (0)"
  },
  {
    "Compound structure": "C[n+]1cc(N(CCCCCC2CCCCC2)c2ccccc2Cl)cc2ccccc21.[I-]",
    "Cat": "true (1)"
  },
  {
    "Compound structure": "COc1ccccc1N(CCCCCC1CCCCC1)c1ccc[n+](C)c1.[I-]",
    "Cat": "false (0)"
  },
  {
    "Compound structure": "CCc1ccc(N(CCCCCC2CCCCC2)c2ccc[n+](C)c2)cc1.[I-]",
    "Cat": "true (1)"
  },
  {
    "Compound structure": "Clc1cccc(Nc2cc3ccccc3[n+](CCCCCC3CCCCC3)c2)c1.[I-]",
    "Cat": "false (0)"
  },
  {
    "Compound structure": "C[n+]1cc(N(CCCCCC2CCCCC2)c2ccccc2)cc2ccccc21.[I-]",
    "Cat": "true (1)"
  },
  {
    "Compound structure": "C[n+]1c2ccccc2cc2[nH]c3c(Cl)cccc3c21.[I-]",
    "Cat": "false (0)"
  },
  {
    "Compound structure": "C[n+]1cccc(N(CCCCCC2CCCCC2)c2ccccc2Cl)c1.[I-]",
    "Cat": "false (0)"
  },
  {
    "Compound structure": "C[n+]1cccc(N(CCCCCC2CCCCC2)c2ccccc2)c1.[I-]",
    "Cat": "false (0)"
  },
  {
    "Compound structure": "C[n+]1cc(N(CCCCCC2CCCCC2)c2cccc(Cl)c2)cc2ccccc21.[I-]",
    "Cat": "true (1)"
  },
  {
    "Compound structure": "C[n+]1cccc(N(CCCCCC2CCCCC2)c2cccc(C(F)(F)F)c2)c1.[I-]",
    "Cat": "false (0)"
  },
  {
    "Compound structure": "COc1cccc(N(CCCCCC2CCCCC2)c2ccc[n+](C)c2)c1.[I-]",
    "Cat": "false (0)"
  },
  {
    "Compound structure": "Cc1ccc(N(CCCCCC2CCCCC2)c2ccc[n+](C)c2)cc1.[I-]",
    "Cat": "false (0)"
  },
  {
    "Compound structure": "C[n+]1c2cc(Cl)ccc2cc2[nH]c3ccccc3c21.O=S(=O)([O-])C(F)(F)F",
    "Cat": "false (0)"
  },
  {
    "Compound structure": "C[n+]1cc(N(CCCCCC2CCCCC2)c2ccc(Cl)cc2)cc2ccccc21.[I-]",
    "Cat": "true (1)"
  },
  {
    "Compound structure": "C[C@@H]1[C@H](O)[C@@H](C)/C=C/C=C/C=C/C=C/C=C/C=C/C=C/[C@H](O[C@@H]2O[C@H](C)[C@@H](O)[C@H](N)[C@@H]2O)C[C@@H]2O[C@](O)(C[C@@H](O)C[C@@H](O)[C@H](O)CC[C@@H](O)C[C@@H](O)CC(=O)O[C@H]1C)C[C@H](O)[C@H]2C(=O)O",
    "Cat": "false (0)"
  },
  {
    "Compound structure": "C[n+]1cccc(N(CCCCCC2CCCCC2)c2cccc(C#N)c2)c1.[I-]",
    "Cat": "false (0)"
  },
  {
    "Compound structure": "C[n+]1c2ccccc2cc2[nH]c3ccc(Cl)cc3c21.[I-]",
    "Cat": "false (0)"
  },
  {
    "Compound structure": "C[n+]1cccc(N(CCCCCC2CCCCC2)c2ccccc2C#N)c1.[I-]",
    "Cat": "false (0)"
  },
  {
    "Compound structure": "C[n+]1c2ccccc2cc2[nH]c3cccc(Cl)c3c21.[I-]",
    "Cat": "false (0)"
  },
  {
    "Compound structure": "Clc1ccc(Nc2cc3ccccc3[n+](CCCCCc3ccccc3)c2)cc1.[I-]",
    "Cat": "false (0)"
  },
  {
    "Compound structure": "C[n+]1cccc(N(CCCCCC2CCCCC2)c2ccc(C#N)cc2)c1.[I-]",
    "Cat": "false (0)"
  },
  {
    "Compound structure": "C[n+]1c2cccc(Cl)c2cc2[nH]c3ccccc3c21.O=S(=O)([O-])C(F)(F)F",
    "Cat": "false (0)"
  },
  {
    "Compound structure": "C[n+]1cccc(N(CCCCCC2CCCCC2)c2ccccc2C(F)(F)F)c1.[I-]",
    "Cat": "false (0)"
  },
  {
    "Compound structure": "[I-].c1ccc(Nc2cc3ccccc3[n+](CCCCCC3CCCCC3)c2)cc1",
    "Cat": "false (0)"
  },
  {
    "Compound structure": "C[n+]1c2ccc(Cl)cc2cc2[nH]c3ccccc3c21.[I-]",
    "Cat": "false (0)"
  },
  {
    "Compound structure": "C[n+]1cccc(N(CCCCCC2CCCCC2)c2ccc(F)cc2)c1.[I-]",
    "Cat": "false (0)"
  },
  {
    "Compound structure": "COc1ccc(N(CCCCCC2CCCCC2)c2ccc[n+](C)c2)cc1.[I-]",
    "Cat": "false (0)"
  },
  {
    "Compound structure": "Cc1cccc(N(CCCCCC2CCCCC2)c2ccc[n+](C)c2)c1.[I-]",
    "Cat": "false (0)"
  },
  {
    "Compound structure": "Cc1ccccc1N(CCCCCC1CCCCC1)c1ccc[n+](C)c1.[I-]",
    "Cat": "false (0)"
  },
  {
    "Compound structure": "C[n+]1c2cc(Cl)ccc2c(Cl)c2[nH]c3ccccc3c21.[I-]",
    "Cat": "false (0)"
  }
]
